target: human α7 nAChR (Homo sapiens); construct: expressed in transfected cells; host or cells: GH4C1 cells derived from rat pituitary (ATCC CCL-82.2); experiment: Evaluation of PAM activity with human α7 nACh receptor stably expressing cells (aequorin luminescence, FDSS7000); assay type: cell-based; conditions: test compound 10 μmol/L; ACh added at EC20; ratio of RLU (Max-Min) of test wells to control wells
endpoint.label: α7PAM (%) @ 10 μmol/L

1) O=C(C1CCOCC1)N1CCC(n2ncc3cc(C4CC4)ccc32)CC1 = 265
2) CC(C)Oc1ccc2c(cnn2C2CCN(C(=O)c3ccc(F)cn3)CC2)c1 = 182
3) Cc1ccc2c(c1)c(OC(C)C)nn2C1CCN(C(=O)NC2CCOCC2)CC1 = 328
4) COCCCc1ccc2c(cnn2C2CCN(C(=O)NC3CCC(F)(F)CC3)CC2)c1 = 521
5) COc1ccc2c(cnn2C2CCN(C(=O)N[C@H]3CC[C@H](OC)CC3)CC2)c1C = 185

* * *

target: human α7 nAChR (Homo sapiens, UniProt P36544); construct: expressed in transfected cells; host or cells: GH4C1 cells derived from rat pituitary (ATCC CCL-82.2); experiment: Evaluation of PAM activity with human α7 nACh receptor stably expressing cells (aequorin luminescence, FDSS7000); format: cell-based; conditions: test compound 10 μmol/L; ACh added at EC20; ratio of RLU (Max-Min) of test wells to control wells
Sequence (P36544 23-502): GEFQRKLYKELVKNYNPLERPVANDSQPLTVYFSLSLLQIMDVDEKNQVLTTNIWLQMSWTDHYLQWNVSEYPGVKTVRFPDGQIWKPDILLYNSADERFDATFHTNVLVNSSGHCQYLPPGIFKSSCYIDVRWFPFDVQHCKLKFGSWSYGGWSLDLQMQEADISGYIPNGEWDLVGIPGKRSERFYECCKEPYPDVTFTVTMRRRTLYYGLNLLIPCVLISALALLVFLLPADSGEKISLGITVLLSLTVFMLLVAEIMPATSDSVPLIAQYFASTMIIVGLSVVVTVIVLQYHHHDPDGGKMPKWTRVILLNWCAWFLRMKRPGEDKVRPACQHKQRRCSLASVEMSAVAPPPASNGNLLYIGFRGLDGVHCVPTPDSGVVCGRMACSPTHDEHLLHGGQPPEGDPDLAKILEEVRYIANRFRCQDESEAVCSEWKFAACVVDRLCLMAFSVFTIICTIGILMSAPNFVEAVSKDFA
Listing of entries alongside the reported α7PAM (%) @ 10 μmol/L.
endpoint.label: α7PAM (%) @ 10 μmol/L

1. CCc1ccc2c(cnn2C2CCN(C(=O)NC3CCC(OC)CC3)CC2)c1 (stereo not shown) = 356
2. COc1c(C)ccc2c1cnn2C1CCN(C(=O)NC2CCOCC2)CC1 = 361
3. COc1c(C2CC2)ccc2c1cnn2C1CCN(C(=O)NC2CCOCC2)CC1 = 1058
4. COC1CCC(NC(=O)N2CCC(n3ncc4c(C5CC5)cccc43)CC2)CC1 (stereo not shown) = 481
5. Cc1c(OC(F)F)ccc2c1cnn2C1CCN(C(=O)NC2CCOCC2)CC1 = 523
6. CCc1nn(C2CCN(C(=O)NC3CCOCC3)CC2)c2ccc(OC)cc12 = 324
7. CCc1ccc2c(c1)c(OC)nn2C1CCN(C(=O)NC2CCOCC2)CC1 = 643
8. O=C(NC1CCC(F)(F)CC1)N1CCC(n2ncc3cc(C(F)(F)F)ccc32)CC1 = 979
9. CCc1ccc2c(c1)c(OC(C)C)nn2C1CCN(C(=O)NC2CCC(F)(F)CC2)CC1 = 653
10. CCc1ccc2c(c1)c(OC)nn2C1CCN(C(=O)NC2CCC(F)(F)CC2)CC1 = 1053
11. [2H]C([2H])([2H])O[C@H]1CC[C@H](NC(=O)N2CCC(n3nc(C4CCOCC4)c4cc(C)ccc43)CC2)CC1 = 807
12. CC(C)Oc1ccc2c(cnn2C2CCN(C(=O)NC3CCCC3)CC2)c1 = 429
13. CCOc1nn(C2CCN(C(=O)NC3CCC(OC)CC3)CC2)c2ccc(CC)cc12 (stereo not shown) = 382
14. [2H]C([2H])([2H])Oc1ccc2c(cnn2C2CCN(C(=O)NC3CCC(F)(F)CC3)CC2)c1 = 1337
15. Cc1ccc2c(cnn2C2CCN(C(=O)NC3CC(F)(F)C3)CC2)c1 = 648
16. CCc1ccc2c(c1)c(OC(F)F)nn2C1CCN(C(=O)NC2CCOCC2)CC1 = 266
17. COc1ccc2c(c1)c(C1CCOCC1)nn2C1CCN(C(=O)NC2CCC(F)(F)CC2)CC1 = 924
18. COCc1nn(C2CCN(C(=O)NC3CCCCC3)CC2)c2ccc(C)cc12 = 430
19. CCc1nn(C2CCN(C(=O)NC3CCC(F)(F)CC3)CC2)c2ccccc12 = 309
20. CCc1ccc2c(c1)c(COC)nn2C1CCN(C(=O)NC2CCC(F)(F)CC2)CC1 = 366
21. CCc1ccc2c(cnn2C2CCN(C(=O)NC3CCCC3)CC2)c1 = 2215
22. Cc1c(Br)ccc2c1cnn2C1CCN(C(=O)NC2CCC(F)(F)CC2)CC1 = 825
23. CCc1ccc2c(cnn2[C@H]2CC[C@@H](C(=O)NC3CCCCC3)CC2)c1 = 806
24. O=C(NC1CCC(F)(F)CC1)N1CCC(n2ncc3c(OC(F)F)cccc32)CC1 = 370
25. CO[C@H]1CC[C@@H](NC(=O)N2CCC(n3ncc4c(C5CC5)cccc43)CC2)CC1 = 207
26. [2H]C([2H])([2H])O[C@H]1CC[C@H](NC(=O)N2CCC(n3ncc4c(CC)cccc43)CC2)CC1 = 464
27. O=C(NC1CCOCC1)N1CCC(n2ncc3cc(Br)ccc32)CC1 = 385
28. [2H]C([2H])([2H])O[C@H]1CC[C@H](NC(=O)N2CCC(n3ncc4c(OC)c(CC)ccc43)CC2)CC1 = 1084
29. [2H]C([2H])([2H])O[C@H]1CC[C@H](NC(=O)N2CCC(n3ncc4cc(OC5CC5)ccc43)CC2)CC1 = 639
30. O=C(NC1CCC(F)(F)CC1)N1CCC(n2ncc3c(F)cccc32)CC1 = 256
31. COc1ccc2c(cnn2C2CCN(C(=O)NC3CCCCC3)CC2)c1 = 3205
32. COc1ccc2c(cnn2C2CCN(C(=O)NC3CCC(F)(F)CC3)CC2)c1C = 861
33. CC(=O)N1CCC(NC(=O)N2CCC(n3ncc4cc(C5CC5)ccc43)CC2)CC1 = 271
34. O=C(NC1CCC(F)(F)CC1)N1CCC(n2ncc3cc(-c4cccnc4)ccc32)CC1 = 229

* * *

Target: human α7 nAChR (Homo sapiens, UniProt P36544)
Construct: expressed in transfected cells; host or cells: GH4C1 cells derived from rat pituitary (ATCC CCL-82.2)
Experiment: Evaluation of PAM activity with human α7 nACh receptor stably expressing cells (aequorin luminescence, FDSS7000)
Type: cell-based
Conditions: test compound 10 μmol/L; ACh added at EC20; ratio of RLU (Max-Min) of test wells to control wells
Experimental: Human α7 nAChR stably expressing cells were generated and cultured. In detail, GH4C1 cells derived from rat pituitary (cat#CCL-82.2, ATCC, USA) were used as a host cell. […] FDSS7000 (Hamamatsu Photonics) was used to detect the luminescence signal evoked by α7 nAChR stimulation. […] After the addition of ACh, the luminescence signal (the central wavelength: 465 nm) was measured for 138 seconds to calculate RLU (Max-Min). […]
endpoint.label: α7PAM (%) @ 10 μmol/L

1. COC(C)c1c(C)ccc2c1cnn2C1CCN(C(=O)NC2CCC(F)(F)CC2)CC1 (centres unmarked) [Example 232] = 860
2. CCc1c(OC)ccc2c1cnn2C1CCN(C(=O)N[C@H]2CC[C@H](OC)CC2)CC1 [Example 288] = 218
3. COc1ccc2c(cnn2C2CCN(C(=O)NC3CCC(F)(F)CC3)CC2)c1C1CC1 [Example 280] = 299
4. [2H]C([2H])([2H])O[C@H]1CC[C@H](NC(=O)N2CCC(n3ncc4cc(CC)ccc43)CC2)CC1 [Example 325] = 997
5. CCOc1ccc2c(cnn2C2CCN(C(=O)NC3CCCC3)CC2)c1 [Example 17] = 2469
6. COC1CC1c1ccc2c(cnn2C2CCN(C(=O)N[C@H]3CC[C@H](OC)CC3)CC2)c1 (some centres unmarked) [Example 246] = 364
7. CCc1ccc2c(cnn2C2CCN(C(=O)c3ccc(F)cn3)CC2)c1 [Example 118] = 188
8. O=C(NC1CCOCC1)N1CCC(n2ncc3c(OC(F)(F)F)cccc32)CC1 [Example 304] = 380
9. CCc1cnc2c(cnn2C2CCN(C(=O)NC3CCC(F)(F)CC3)CC2)c1 [Example 99] = 755
10. [2H]C([2H])([2H])Oc1nn(C2CCN(C(=O)NC3CCOCC3)CC2)c2ccc(C(F)(F)F)cc12 [Example 309] = 406
11. CCOc1c(CC)ccc2c1cnn2C1CCN(C(=O)NC2CCC(F)(F)CC2)CC1 [Example 271] = 931
12. CC1(C)CC(NC(=O)N2CCC(n3ncc4cc(C5CC5)ccc43)CC2)CCO1 (centres unmarked) [Example 210] = 209
13. CCc1ccc2c(c1)c(OC(C)C)nn2C1CCN(C(=O)NC2CCCC2)CC1 [Example 58] = 577
14. CCc1ccc2c(c1)c(OC)nn2C1CCN(C(=O)NC2CCCCC2)CC1 [Example 151] = 746
15. COC1CCC(NC(=O)N2CCC(n3ncc4cc(Cl)ccc43)CC2)CC1 (centres unmarked) [Example 35] = 411
16. COC1CCC(NC(=O)N2CCC(n3ncc4cc(Br)ccc43)CC2)CC1 (centres unmarked) [Example 71] = 763
17. CCOc1ccc2c(cnn2C2CCN(C(=O)NC3CCC(F)(F)CC3)CC2)c1C [Example 281] = 197
18. CC(C)Oc1ccc2c(cnn2C2CCN(C(=O)C3CCC(F)(F)CC3)CC2)c1 [Example 116] = 279
19. CCc1ccc2c(cnn2C2CCN(C(=O)NC3CCOCC3)CC2)c1 [Example 24] = 745
20. COCCc1ccc2c(cnn2C2CCN(C(=O)NC3CCC(F)(F)CC3)CC2)c1 [Example 239] = 485
21. Cc1ccc2c(cnn2C2CCN(C(=O)NC3CCOC(C)(C)C3)CC2)c1 (centres unmarked) [Example 12] = 231
22. CCOc1nn(C2CCN(C(=O)NC3CCCCC3)CC2)c2ccc(CC)cc12 [Example 60] = 846
23. O=C(NC1CCC(F)(F)CC1)N1CCC(n2ncc3cc(OC(F)F)ccc32)CC1 [Example 290] = 1173
24. CO[C@H]1CC[C@@H](NC(=O)N2CCC(n3ncc4cc(C5CC5)ccc43)CC2)CC1 [Example 189] = 257
25. CCc1c(OC)ccc2c1cnn2C1CCN(C(=O)NC2CCC(F)(F)CC2)CC1 [Example 287] = 645
26. O=C(NCc1ccc(C(F)(F)F)cc1)N1CCC(n2ncc3cc(C4CC4)ccc32)CC1 [Example 195] = 232
27. Cc1ccc2c(cnn2C2CCN(C(=O)C3CCCCC3)CC2)c1 [Example 105] = 338
28. COC1CCC(NC(=O)N2CCC(n3ncc4c(C)cccc43)CC2)CC1 (centres unmarked) [Example 95] = 133
29. COC1CCC(NC(=O)N2CCC(n3ncc4c(OC(F)F)cccc43)CC2)CC1 (centres unmarked) [Example 202] = 195
30. COCc1c(C)ccc2c1cnn2C1CCN(C(=O)N[C@H]2CC[C@H](OC)CC2)CC1 [Example 214] = 207
31. CCc1ccc2c(cnn2[C@H]2CC[C@@H](NC(=O)[C@H]3CC[C@H](OC)CC3)CC2)c1 [Example 122] = 410
32. COc1ccc2c(cnn2C2CCN(C(=O)NC3CCCC3(F)F)CC2)c1 (centres unmarked) [Example 87] = 514
33. CCc1ccc2c(cnn2C2CCN(C(=O)C3CCOCC3)CC2)c1 [Example 111] = 410
34. CCOc1c(C)ccc2c1cnn2C1CCN(C(=O)NC2CCOCC2)CC1 [Example 273] = 341
35. O=C(NC1CCCC1)N1CCC(n2ncc3cc(OC(F)(F)F)ccc32)CC1 [Example 229] = 689

Cited source for all entries: patent US8765786B2
